test target: T1, L-selectin (LS-Rg) (Homo sapiens, UniProt P14151 P14151:39-332)
T1 chain: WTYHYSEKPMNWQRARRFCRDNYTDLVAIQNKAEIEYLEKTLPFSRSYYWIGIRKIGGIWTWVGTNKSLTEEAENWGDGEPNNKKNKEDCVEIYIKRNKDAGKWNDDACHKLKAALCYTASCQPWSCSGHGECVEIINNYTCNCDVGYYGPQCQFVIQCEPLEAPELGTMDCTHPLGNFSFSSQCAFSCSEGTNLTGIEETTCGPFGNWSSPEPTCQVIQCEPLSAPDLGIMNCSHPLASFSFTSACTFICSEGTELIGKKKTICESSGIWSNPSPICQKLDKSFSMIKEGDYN
procedure summary: filter; room temp; 970 pM at 37 C
recorded conditions: tags: human IgG2 Fc fusion (provided by A. Varki); label: 32P; hairpin
value kind: pKd
On this scale, pKd is minus log10 of a concentration expressed in M (mol/L).

# return recorded pKd for input 193 (ssDNA) DNA: CTACCTACGATCTGACTAGCCCAGGAGCACAGTACAAGGTGTTAAACGTAATGTCTGGTGCTTACTCTCATGTAGTTCC 10.06

Source of measurements: patent US6001988
